test: Circular dichroism (CD) α-helicity; format: physicochemical; conditions: Table 1; CD of free peptide, 25 °C, 1 mM Hepes pH 7.4, 5% methanol
Bridge positions count the residues as written; N and C are the ends. Square brackets hold non-standard residues; d marks the D form. Peptide text beside a SMILES is read from it. R8 = C=CCCCCCC[C@@](C)(N)C(=O)O; Cba = N[C@@H](CC1CCC1)C(=O)O; S5 = C=CCCC[C@](C)(N)C(=O)O
testReadout: Helicity (%)
Give a bare numeral; the unit % is implied.

Solved cases (3 shown):
compound	Helicity (%)
CC(=O)N[C@@H](CC(C)C)C(=O)N[C@H](C(=O)N[C@@H](Cc1ccccc1)C(=O)N[C@]1(C)CCCCCCC=CCCC[C@@](C)(C(=O)N[C@H](CO)C(=O)N[C@@H](C)C(=O)N[C@@H](C)C(N)=O)NC(=O)[C@H](CC2CCC2)NC(=O)[C@H](CC(C)C)NC(=O)[C@H](CCC(N)=O)NC(=O)[C@H](Cc2c[nH]c3ccccc23)NC(=O)[C@H](Cc2ccc(O)cc2)NC(=O)[C@H](CCC(=O)O)NC1=O)[C@@H](C)O	41.2
CC(=O)N[C@@H](C)C(=O)N[C@H](C(=O)N[C@@H](Cc1ccccc1)C(=O)N[C@]1(C)CCCCCCC=CCCC[C@@](C)(C(=O)N[C@@H](CO)C(=O)N[C@@H](C)C(=O)N[C@@H](C)C(N)=O)NC(=O)[C@H](CC2CCC2)NC(=O)[C@H](CC(C)C)NC(=O)[C@H](CCC(N)=O)NC(=O)[C@H](Cc2c[nH]c3ccccc23)NC(=O)[C@H](Cc2ccc(O)cc2)NC(=O)[C@H](CCC(=O)O)NC1=O)[C@@H](C)O [Peptide L1A] (Ac-ATF[R8]EYWQL[Cba][S5]SAA-NH2; staple 4-11)	53.3
CC(=O)N[C@@H](CC(C)C)C(=O)N[C@H](C(=O)N[C@@H](Cc1ccccc1)C(=O)N[C@]1(C)CCCCCCC=CCCC[C@@](C)(C(=O)N[C@@H](CO)C(=O)N[C@H](C)C(=O)N[C@@H](C)C(N)=O)NC(=O)[C@H](CC2CCC2)NC(=O)[C@H](CC(C)C)NC(=O)[C@H](CCC(N)=O)NC(=O)[C@H](Cc2c[nH]c3ccccc23)NC(=O)[C@H](Cc2ccc(O)cc2)NC(=O)[C@H](CCC(=O)O)NC1=O)[C@@H](C)O	41.8

// switching to the query compound
Record summary for `CC(=O)N[C@@H](CC(C)C)C(=O)N[C@H](C(=O)N[C@@H](Cc1ccccc1)C(=O)N[C@]1(C)CCCCCCC=CCCC[C@@](C)(C(=O)N[C@@H](CO)C(=O)N[C@@H](C)C(=O)N[C@@H](C)C(N)=O)NC(=O)[C@H](CC2CCC2)NC(=O)[C@@H](CC(C)C)NC(=O)[C@H](CCC(N)=O)NC(=O)[C@H](Cc2c[nH]c3ccccc23)NC(=O)[C@H](Cc2ccc(O)cc2)NC(=O)[C@H](CCC(=O)O)NC1=O)[C@@H](C)O` : reported Helicity (%) = 39.0
